- protocol: Tmax in cynomolgus monkey plasma at 3 mg/kg, administered through oral gavage measured after 24 hrs
- Type: ADME, organism-based, Macaca fascicularis
observable: Tmax (h)
I only need the number, in h, no unit after it.

Supply recorded Tmax for `CCCC[C@@H](CCO)Nc1nc(N)ncc1OC` here. 1

====

- protocol: Cmax in cynomolgus monkey plasma at 30 mg/kg, administered through oral gavage measured after 24 hrs
- Assay type: ADME, organism-based, Macaca fascicularis
- Set-up: dose 30 mg/kg, route oral
observable: Cmax (ng/mL)
Your answer should be a plain number; it is taken to be in ng/mL.

Identify measured Cmax corresponding to `CCCC[C@@H](CCO)Nc1nc(N)ncc1OC` 355

====

- protocol: Oral bioavailability in cynomolgus monkey at 9 mg/kg, measured after 24 hrs
- Assay type: ADME, organism-based, Macaca fascicularis
- setup_conditions: in vivo
observable: bioavailability

Note bioavailability for the molecule shown: `CCCC[C@@H](CCO)Nc1nc(N)ncc1OC` 1.5%

====

- protocol: AUC(0 to last) in cynomolgus monkey plasma at 30 mg/kg, administered through oral gavage measured after 24 hrs
- Assay type: ADME, organism-based, Macaca fascicularis
- Parameters: dose 30 mg/kg, time 0 - last, route oral
observable: AUC(0-t) at 24 h (ng·h/mL)
Kindly answer with a numeric value in ng·h/mL, unit omitted.

Name the recorded AUC(0-t) at 24 h of the item `CCCC[C@@H](CCO)Nc1nc(N)ncc1OC` in your answer. 583

====

- assay_system: Toll-like receptor 7 (Homo sapiens)
- protocol: Agonist activity at human TLR7 expressed in HEK293 cells measured after 6 hrs by NF-kappaB luciferase reporter gene assay
- Assay type: cell-based
Rule: LED below 7 µM gives Fulfilled, anything at or above gives Not fulfilled.

Reference set, count: 3
[[record]]
compound = "CCCCNc1nc(N)ncc1OCc1cc(C)nn1C"
cat = "Fulfilled"

[[record]]
compound = "CCCCNc1nc(N)ncc1OCc1cccnn1"
cat = "Fulfilled"

[[record]]
compound = "CCCCNc1nc(N)ncc1OC(C)C"
cat = "Not fulfilled"


A record lists `COc1cnc(N)nc1N[C@H](CCO)CC(C)C` . Is its LED below 7 µM? Not fulfilled

LED under 7 µM? Item: `CC[C@H](C)CNc1nc(N)ncc1OC` Not fulfilled

Please indicate whether the reported LED of `CCCCNc1nc(N)ncc1OCc1ccccc1` is strictly below 7 µM. Fulfilled

LED strictly < 7 µM for this compound? `CC[C@H](C)[C@@H](CO)Nc1nc(N)ncc1OC` Not fulfilled

Please determine if `CCCCNc1nc(N)ncc1OCc1c(C)noc1C` is below 7 µM in terms of LED. Fulfilled

====

- assay_system: Toll-like receptor 7 (Homo sapiens) (UniProt Q9NYK1)
- Sequence (Q9NYK1 whole entry): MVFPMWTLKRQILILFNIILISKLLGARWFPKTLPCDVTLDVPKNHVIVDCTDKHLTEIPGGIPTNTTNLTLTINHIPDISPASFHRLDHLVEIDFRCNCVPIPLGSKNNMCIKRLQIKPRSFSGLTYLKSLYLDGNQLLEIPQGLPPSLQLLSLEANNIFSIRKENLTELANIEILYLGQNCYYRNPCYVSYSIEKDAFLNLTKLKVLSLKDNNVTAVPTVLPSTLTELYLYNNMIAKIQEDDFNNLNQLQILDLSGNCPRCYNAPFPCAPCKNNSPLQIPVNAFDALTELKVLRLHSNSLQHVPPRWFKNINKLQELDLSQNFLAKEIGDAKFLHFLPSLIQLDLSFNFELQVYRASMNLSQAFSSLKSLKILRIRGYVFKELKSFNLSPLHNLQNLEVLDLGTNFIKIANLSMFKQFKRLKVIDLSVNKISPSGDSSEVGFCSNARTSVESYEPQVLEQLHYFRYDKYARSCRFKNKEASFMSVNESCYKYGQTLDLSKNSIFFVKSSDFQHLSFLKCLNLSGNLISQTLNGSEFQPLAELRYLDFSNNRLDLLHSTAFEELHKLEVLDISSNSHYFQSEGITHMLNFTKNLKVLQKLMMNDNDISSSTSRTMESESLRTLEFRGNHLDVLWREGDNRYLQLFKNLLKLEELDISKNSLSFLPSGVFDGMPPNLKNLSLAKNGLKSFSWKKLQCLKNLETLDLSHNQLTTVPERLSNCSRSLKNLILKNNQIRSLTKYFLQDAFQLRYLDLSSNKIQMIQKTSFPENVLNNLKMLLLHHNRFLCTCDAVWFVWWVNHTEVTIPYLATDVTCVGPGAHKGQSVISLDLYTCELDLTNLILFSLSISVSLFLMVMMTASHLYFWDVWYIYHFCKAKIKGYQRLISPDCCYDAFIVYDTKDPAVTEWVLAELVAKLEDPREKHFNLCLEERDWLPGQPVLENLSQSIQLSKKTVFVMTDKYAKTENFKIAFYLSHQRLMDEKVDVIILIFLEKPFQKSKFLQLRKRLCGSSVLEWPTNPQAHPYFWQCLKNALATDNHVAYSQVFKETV
- protocol: Activation of TLR7 in human PBMCs incubated for overnight duration followed by compound-treated cell supernatant conditioned media transfer to HCV1b transfected human HuH7-luc/neo replicon cells assessed as induction of INFalpha-mediated suppression of virus growth by firefly-luciferase reporter gene assay
Readings of LED for the listed compounds
The answer is to be given in µM; state only the numeric part.

For the compound `CCCCNc1nc(N)ncc1OCc1c(C)noc1C` , give its measured LED value. 0.38

Fill in LED for record `CCCCNc1nc(N)ncc1OCc1cccnn1` 0.12

For the compound `CCCCNc1nc(N)ncc1OCc1nc2ccccc2s1` , report LED. 0.11

Note down LED recorded for `CCCCNc1nc(N)ncc1OCc1nc2ccccc2[nH]1` 0.012

Supply LED value. Item: `CC[C@H](C)[C@@H](CO)Nc1nc(N)ncc1OC` 1.7
